From: patent US20220127258A1

Assay Name: Plasma and liver concentration of the compound after 4 days of administration in the cholestasis rat induced by ANIT
Format: in vivo, SD rats
Study Conditions: SD, plasma, oral, 3 mg/kg/day, 2 h, 3 mg/kg/d, read-out: Plasma concentration of the compound
concentration at 2 h reference

Before answering, review these 3 worked examples.
>>> result("O=C(O)c1ccc(-c2nnc(N3[C@@H]4CC[C@H]3C[C@@H](OCc3c(-c5c(Cl)cccc5Cl)noc3C3CC3)C4)o2)s1")
"401 ng/mL"
>>> result("Cc1cc(C(=O)O)ccc1-c1nnc(N2[C@@H]3CC[C@H]2C[C@@H](OCc2c(-c4c(Cl)cccc4Cl)noc2C2CC2)C3)o1")
"168 ng/mL"
>>> result("O=C(O)c1ccc(-c2nnc(N3[C@@H]4CC[C@H]3C[C@@H](OCc3c(-c5ccccc5OC(F)(F)F)noc3C3CC3)C4)o2)cc1")
"440 ng/mL"

Consider now this further compound.
What value of measured concentration at 2 h is listed for "O=C(O)c1ccc(-c2nnc(N3[C@@H]4CC[C@H]3C[C@@H](OCc3c(-c5c(Cl)cccc5Cl)noc3C3CC3)C4)o2)cc1" ? 44.6 ng/mL
